These measurements were taken from patent US11851389B2.

Assay: LNP size distribution, PDI and ζ potential by dynamic light scattering
Type: physicochemical
Conditions: LNP-siRNA formulations
property: Zeta-potential (mV)

CCCCC/C=C\C/C=C\CCCCCCCCN(CCCCCCCC/C=C\C/C=C\CCCCC)CCOC(=O)CCCN(C)C ... 6.7

a: CCCCC/C=C\C/C=C\CCCCCCCCN(CCCCCCCC/C=C\C/C=C\CCCCC)NC(=O)CCCN1CCN(C)CC1
b: CCCCC/C=C\C/C=C\CCCCCCCCNN(CCCCCCCC/C=C\C/C=C\CCCCC)CCCCN(C)C
c: CCCCC/C=C\C/C=C\CCCCCCCCN(CCCCCCCC/C=C\C/C=C\CCCCC)CCOC(=O)CCCN1CCN(C)CC1
stdin: Rank ascending by Zeta-potential (mV). List the labels in the requested order.
stdout: a, c, b

---

Assay: LNP size distribution, PDI and ζ potential by dynamic light scattering
Assay type: physicochemical
Conditions: LNP-siRNA formulations, DLS
property: PDI

Worked examples, 5 compounds total:
CCCCC/C=C\C/C=C\CCCCCCCCC(CCCCCCCC/C=C\C/C=C\CCCCC)OC(=O)CCCN(C)C [Dlin-MC3-DMA, reference compound] ... 0.18
CCCCC/C=C\C/C=C\CCCCCCCCN(CCCCCCCC/C=C\C/C=C\CCCCC)NC(=O)CCCN(C)C ... 0.08
CCCCC/C=C\C/C=C\CCCCCCCCN(CCCCCCCC/C=C\C/C=C\CCCCC)OC(=O)Cc1c[nH]cn1 ... 0.15
CCCCC/C=C\C/C=C\CCCCCCCCN(CCCCCCCC/C=C\C/C=C\CCCCC)NC(=O)[C@@H](N)CCCCN(C)C ... 0.10
CCCCC/C=C\C/C=C\CCCCCCCCN(CCCCCCCC/C=C\C/C=C\CCCCC)OC(=O)CCCN(C)C ... 0.09

A: CCCCC/C=C\C/C=C\CCCCCCCCN(CCCCCCCC/C=C\C/C=C\CCCCC)NCCN(C)C
B: CCCCC/C=C\C/C=C\CCCCCCCCN(CCCCCCCC/C=C\C/C=C\CCCCC)CCOC(=O)CCCN1CCN(C)CC1
stdin: Please tell me which of the two, A or B , has the higher reported PDI value. Let me know the label of the one you choose.
stdout: B

---

Assay: LNP size distribution, PDI and ζ potential by dynamic light scattering
Type: physicochemical
Conditions: LNP-siRNA formulations
property: Zeta-potential (mV)

CCCCC/C=C\C/C=C\CCCCCCCCN(CCCCCCCC/C=C\C/C=C\CCCCC)OC(=O)CCCN(C)C ... −3.6
CCCCC/C=C\C/C=C\CCCCCCCCC(CCCCCCCC/C=C\C/C=C\CCCCC)OC(=O)CCCN(C)C [Dlin-MC3-DMA, reference compound] ... −1
CCCCC/C=C\C/C=C\CCCCCCCCN(CCCCCCCC/C=C\C/C=C\CCCCC)OC(=O)CN(C)C ... −13.6
CCCCC/C=C\C/C=C\CCCCCCCCN(CCCCCCCC/C=C\C/C=C\CCCCC)OC(=O)Cc1c[nH]cn1 ... −10.8
CCCCC/C=C\C/C=C\CCCCCCCCNN(CCCCCCCC/C=C\C/C=C\CCCCC)CCN(C)C ... 18.5

P: CCCCC/C=C\C/C=C\CCCCCCCCN(CCCCCCCC/C=C\C/C=C\CCCCC)NC(=O)[C@@H](N)CCCCN(C)C
Q: CCCCC/C=C\C/C=C\CCCCCCCCN(CCCCCCCC/C=C\C/C=C\CCCCC)NCCN(C)C
stdin: Identify the entry with the smaller Zeta-potential (mV): P or Q . Response format: the label of the selected entry.
stdout: Q
(Q: 10.1 mV, P: 20.4 mV)
